This section presents compounds with their documented EC50 values.
# System: Human immunodeficiency virus 1
# Assay: Antiviral activity against HIV1 3B infected in human MT2 cells assessed as inhibition of virus-induced cytopathic effect by MTT assay
# Type: functional, organism-based
# Condition Context: Human immunodeficiency virus 1, 3B, MT2; read-out: EC50
All answers are understood in nM, so give the number only.

// worked examples, EC50 included
>  <Chemical Structure>
COCCOCCOCCOc1nc(Nc2ccc(C#N)c(OCC=C(C)C)c2)nc(OC)n1

>  <Quantity Unit>
nM

>  <EC50>
380

$$$$
>  <Chemical Structure>
COc1nc(Nc2ccc(C#N)c(OCC=C(C)C)c2)nc(OCCCOc2nc(Nc3ccc(C#N)c(OCC=C(C)C)c3)nc(OC)n2)n1

>  <Quantity Unit>
nM

>  <EC50>
170

$$$$

Answer with the recorded EC50 of `CCc1nc(Nc2ccc(C#N)c(OCC=C(C)C)c2)nc(OCCOC)n1` only.
57

Answer with the recorded EC50 of `COc1nc(Nc2ccc(C#N)c(OCC=C(C)C)c2)nc(OCCOc2nc(Nc3ccc(C#N)c(OCC=C(C)C)c3)nc(OC)n2)n1` only.
390
